Please provide measured Papp for the entries that follow.
- method: Permeation across PermeaPad barrier, reversed Franz cell setup, after NaCl pretreatment
- Assay type: in vitro ADME
- conditions_used: pH 6.5, barrier pretreated 30 min with 50 mOsm/kg NaCl solution; permeation in 300 mOsm PBS pH 6.5, 37 °C; mean ± SD; read-out: Permeability across PermeaPad®
- Protocol: During these studies, phosphate-buffered saline (PBS) was used as the acceptor medium and for the preparation of donor media for permeation experiments. […] Finally, the osmolality was measured on a semi-micro osmometer K-7400 from KNAUER Wissenschaftliche Geräte GmbH (Berlin, Germany), and NaCl was added to obtain an osmolality of 300 mOsm. […] The column temperature was 40 °C during measurement. […] All quantification was with a freshly prepared calibration curve in the relevant range. […]
One number for each entry, in ×10⁻⁶ cm/s.

Known Papp results, listed for orientation:
{"structure_smiles": "O=C(O)CN(CC(=O)O)Cc1cc2c(cc1O)Oc1cc(O)c(CN(CC(=O)O)CC(=O)O)cc1C21OC(=O)c2ccccc21", "unit_descriptor": "×10⁻⁶ cm/s", "Papp": 0.61}
{"structure_smiles": "Cc1ccc(-c2cc(C(F)(F)F)nn2-c2ccc(S(N)(=O)=O)cc2)cc1", "unit_descriptor": "×10⁻⁶ cm/s", "Papp": 17.9}

Q: Suppose we examine the compound Nc1nc2c(ncn2COCCO)c(=O)[nH]1 ; what Papp value has been reported?
Result: 4.07

----------
- method: Permeation across PermeaPad barrier, reversed Franz cell setup, after NaCl pretreatment
- Assay type: in vitro ADME
- conditions_used: pH 6.5, barrier pretreated 30 min with 300 mOsm/kg NaCl solution; permeation in 300 mOsm PBS pH 6.5, 37 °C; mean ± SD; read-out: Permeability across PermeaPad®
recorded_endpoint: Papp (×10⁻⁶ cm/s)
Numbers only, in ×10⁻⁶ cm/s.

{"structure_smiles": "Nc1nc2c(ncn2COCCO)c(=O)[nH]1", "unit_descriptor": "×10⁻⁶ cm/s", "Papp": 2.52}
{"structure_smiles": "Cc1ccc(-c2cc(C(F)(F)F)nn2-c2ccc(S(N)(=O)=O)cc2)cc1", "unit_descriptor": "×10⁻⁶ cm/s", "Papp": 15.9}

Q: What Papp value was documented for this compound, O=C(O)CN(CC(=O)O)Cc1cc2c(cc1O)Oc1cc(O)c(CN(CC(=O)O)CC(=O)O)cc1C21OC(=O)c2ccccc21 ?
Result: 0.35

----------
- method: Permeability across the lipid layer of PermeaPad calculated from Papp and Psup (Equation 3)
- Type: in vitro ADME
- conditions_used: not told, pH 6.5, pretreatment with 300 mOsm/kg NaCl solution; calculated 1/Papp=1/Plip+1/Psup
recorded_endpoint: Papp (×10⁻⁶ cm/s)
Numbers only, in ×10⁻⁶ cm/s.

These recorded examples may help you get a feel for the data.
{"compound": "O=C(O)CN(CC(=O)O)Cc1cc2c(cc1O)Oc1cc(O)c(CN(CC(=O)O)CC(=O)O)cc1C21OC(=O)c2ccccc21 [Calcein, calcein]", "recorded_endpoint": "Papp", "reading": 0.4}
{"compound": "Cc1ccc(-c2cc(C(F)(F)F)nn2-c2ccc(S(N)(=O)=O)cc2)cc1 [Celecoxib, celecoxib]", "recorded_endpoint": "Papp", "reading": 26.2}

Consider now this further compound.
Q: Need Papp of Nc1nc2c(ncn2COCCO)c(=O)[nH]1 [Acyclovir, acyclovir] , thanks.
Result: 2.74
